- STUDY SYSTEM: PiCypA (cyclophilin A-like protein) (Piriformospora indica, UniProt C6KGV3 1-164)
- PROTOCOL NOTES: ITC
QUANTITY NAME: pKd
pKd is defined as minus the log10 of a concentration measured in mol/L.

In plain terms, AUAGCCUCAACCG (ssRNA) [13 mer RNA] has a documented pKd of 4.65

Where these numbers come from: paper PMC3801112
